Sourced from patent US20100267725A1

Provide the recorded IC50 for the entries that follow.
Target: CFTR channel (Homo sapiens)
Sequence (P13569 whole entry): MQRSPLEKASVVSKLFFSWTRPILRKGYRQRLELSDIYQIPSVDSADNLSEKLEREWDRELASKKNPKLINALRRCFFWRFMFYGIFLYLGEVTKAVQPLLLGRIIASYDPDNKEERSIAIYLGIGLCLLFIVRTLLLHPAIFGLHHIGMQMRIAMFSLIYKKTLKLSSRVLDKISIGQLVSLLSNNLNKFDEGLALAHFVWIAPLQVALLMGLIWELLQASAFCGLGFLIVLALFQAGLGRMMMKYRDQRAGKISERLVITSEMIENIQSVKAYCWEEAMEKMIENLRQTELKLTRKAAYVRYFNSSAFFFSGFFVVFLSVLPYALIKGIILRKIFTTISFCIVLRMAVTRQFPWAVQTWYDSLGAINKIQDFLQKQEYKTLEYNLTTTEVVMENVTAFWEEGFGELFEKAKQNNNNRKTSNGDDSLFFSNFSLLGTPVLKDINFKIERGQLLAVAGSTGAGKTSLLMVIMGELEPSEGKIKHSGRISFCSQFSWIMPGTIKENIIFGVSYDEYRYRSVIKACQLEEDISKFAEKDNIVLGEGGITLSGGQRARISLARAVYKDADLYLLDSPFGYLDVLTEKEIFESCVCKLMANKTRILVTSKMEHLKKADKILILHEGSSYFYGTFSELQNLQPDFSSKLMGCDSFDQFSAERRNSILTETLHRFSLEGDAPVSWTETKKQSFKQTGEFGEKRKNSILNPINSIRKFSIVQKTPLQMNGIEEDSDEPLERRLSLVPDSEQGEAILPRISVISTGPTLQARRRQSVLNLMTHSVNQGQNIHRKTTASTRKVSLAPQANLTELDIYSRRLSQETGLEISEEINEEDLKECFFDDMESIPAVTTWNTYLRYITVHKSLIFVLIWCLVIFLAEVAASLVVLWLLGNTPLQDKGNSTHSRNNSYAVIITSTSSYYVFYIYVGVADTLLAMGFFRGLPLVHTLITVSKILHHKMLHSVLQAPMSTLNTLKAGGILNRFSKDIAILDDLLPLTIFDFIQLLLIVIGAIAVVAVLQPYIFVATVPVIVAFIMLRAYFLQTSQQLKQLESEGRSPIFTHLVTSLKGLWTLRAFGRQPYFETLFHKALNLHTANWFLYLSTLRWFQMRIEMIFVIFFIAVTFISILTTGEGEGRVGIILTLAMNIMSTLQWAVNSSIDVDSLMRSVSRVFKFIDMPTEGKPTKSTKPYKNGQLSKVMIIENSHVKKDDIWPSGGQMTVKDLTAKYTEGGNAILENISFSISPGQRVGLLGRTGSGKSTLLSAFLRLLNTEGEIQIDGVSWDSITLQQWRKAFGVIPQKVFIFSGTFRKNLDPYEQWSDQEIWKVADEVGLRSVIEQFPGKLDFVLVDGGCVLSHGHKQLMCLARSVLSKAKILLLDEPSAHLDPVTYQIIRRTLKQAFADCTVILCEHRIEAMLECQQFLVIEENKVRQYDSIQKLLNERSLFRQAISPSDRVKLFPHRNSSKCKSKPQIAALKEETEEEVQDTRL
Test: T84 assay (FLIPR membrane potential dye, forskolin/IBMX-stimulated CFTR channel activity)
Details: Human colonic T84 cells; CFTR stimulated with 10 μM forskolin + 100 μM IBMX
Answer with the figure and its unit, nothing else.

## Input # lookup: IC50 of `COc1ccc(-n2c(C(=O)NCc3ccc(Oc4ccccc4)cc3)nnc2-c2cc(Cl)c(O)c(Cl)c2)cn1`
## Output 7.74 µM

## Input Please give the result for `O=C(NCc1ccc(Oc2ccccc2)cc1)c1nnc(-c2cc(Cl)c(O)c(Cl)c2)n1Cc1ccc(CN2CCOCC2)cc1` too.
## Output 12.8 µM

## Input Repeat for the following compound: `O=C(NCc1ccc(Oc2ccccc2)cc1)c1nnc(-c2cc(Cl)c(O)c(Cl)c2)n1Cc1ccccc1`
## Output 7.14 µM

## Input Would you kindly repeat that for `CN(C)c1cccc(Cn2c(C(=O)NCc3ccc(Oc4ccccc4)cc3)nnc2-c2cc(Cl)c(O)c(Cl)c2)c1` ?
## Output 6.69 µM

## Input And what about the compound `O=C(NCc1ccc(Oc2ccccc2)cc1)c1nnc(-c2cc(Cl)c(O)c(Cl)c2)n1Cc1ccccn1` ?
## Output 12.9 µM

## Input And what about the compound `O=C(NCc1ccc(Oc2ccccc2)cc1)c1nnc(-c2cc(Cl)c(O)c(Cl)c2)n1Cc1cccnc1` ?
## Output 7.18 µM
